- system.name: Sodium/glucose cotransporter 2 (Homo sapiens)
- Sequence (P31639 whole entry): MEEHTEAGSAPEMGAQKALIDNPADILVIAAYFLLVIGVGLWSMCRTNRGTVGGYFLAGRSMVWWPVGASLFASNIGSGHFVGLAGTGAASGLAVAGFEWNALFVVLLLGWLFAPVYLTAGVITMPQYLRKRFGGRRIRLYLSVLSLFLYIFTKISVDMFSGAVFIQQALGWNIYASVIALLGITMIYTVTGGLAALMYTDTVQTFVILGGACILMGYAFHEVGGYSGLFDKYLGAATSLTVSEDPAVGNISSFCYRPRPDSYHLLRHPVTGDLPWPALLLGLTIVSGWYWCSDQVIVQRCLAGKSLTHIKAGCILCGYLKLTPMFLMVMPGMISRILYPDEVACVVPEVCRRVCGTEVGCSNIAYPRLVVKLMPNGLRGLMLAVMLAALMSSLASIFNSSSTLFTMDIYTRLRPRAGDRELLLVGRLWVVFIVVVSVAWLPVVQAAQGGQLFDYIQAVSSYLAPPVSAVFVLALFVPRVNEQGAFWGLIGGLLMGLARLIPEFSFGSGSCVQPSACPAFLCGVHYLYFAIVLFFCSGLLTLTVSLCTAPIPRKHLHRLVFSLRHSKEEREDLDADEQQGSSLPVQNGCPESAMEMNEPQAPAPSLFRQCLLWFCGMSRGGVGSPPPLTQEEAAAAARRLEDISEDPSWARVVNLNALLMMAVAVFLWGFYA
- procedure.text: Inhibition of human SGLT2 expressed in CHO-K1 cells assessed as reduction in [14C]-alpha-methylglucopyranoside uptake after 2 hrs by liquid scintillation counting
assay.endpoint: EC50 (µM)
Quick reminder: number only, in µM, skip the unit.

Param item = CCOc1ccc(Cc2cc([C@@H]3O[C@H](CO)[C@@H](O)[C@H](O)[C@H]3O)ccc2C)cc1 ; retrieve measured EC50.
0.0011

Check OC[C@H]1O[C@@H](n2cc(Cc3ccc(C4CC4)cc3)c3c(F)cccc32)[C@H](O)[C@@H](O)[C@@H]1O too.
0.0019

Moving on to CC(C)(C)C(O)Cn1c(=N)n(Cc2ccccc2)c2ccccc21 (stereo unspecified)
3.85

Now give it for COc1ccc(NC(=S)NNC(=O)c2cc(-c3ccccc3)sc2N)cc1 too.
8.98

Queued: OC[C@H]1O[C@@H](n2cc(Cc3ccc(C4CC4)cc3)c3c(F)cc(F)cc32)[C@H](O)[C@@H](O)[C@@H]1O
0.0028

And N=c1n(Cc2ccccc2)c2ccccc2n1CC(O)COc1ccccc1 (stereo unspecified) ?
4.6

Please give the result for N=c1n(Cc2ccc(Cl)cc2)c2ccccc2n1CC(O)c1ccco1 (stereo unspecified) too.
11

Would you mind doing N=c1n(CCO)c2ccccc2n1Cc1ccc(Cl)cc1 as well?
31.1
